TESTED_ON: UniProtKB P14902
Sequence (P14902 whole entry): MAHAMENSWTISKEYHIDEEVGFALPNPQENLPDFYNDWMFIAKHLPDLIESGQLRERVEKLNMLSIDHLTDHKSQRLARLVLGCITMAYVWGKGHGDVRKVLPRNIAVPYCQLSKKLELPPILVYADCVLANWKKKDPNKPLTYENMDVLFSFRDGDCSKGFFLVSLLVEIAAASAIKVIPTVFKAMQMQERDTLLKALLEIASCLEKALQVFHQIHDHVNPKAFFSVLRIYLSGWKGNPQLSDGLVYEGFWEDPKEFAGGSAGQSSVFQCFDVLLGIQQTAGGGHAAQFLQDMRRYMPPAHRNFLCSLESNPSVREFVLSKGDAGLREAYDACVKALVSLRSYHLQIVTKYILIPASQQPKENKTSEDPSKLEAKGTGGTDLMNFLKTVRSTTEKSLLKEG
TEST_NAME: IDO inhibition assay in HEK293 cells stably expressing human IDO1 (kynurenine, Ehrlich reagent, absorbance 490 nm)
CONDITIONS: 20 hours incubation, read-out: IDO1 HEK Human IC50
ATTRIBUTE_MEASURED: IC50 (nM)

Worked examples, 5 molecules total:
                                   molecule  measured_number
0  Cc1cnc(-c2nnc(N[C@H](C)[C@H]3CC[C@@H](c4ccnc5ccc(F)cc54)CC3)o2)s1             10.6
1  COc1ccc(-c2nnc(N[C@H](C)[C@H]3CC[C@@H](c4ccnc5ccc(F)cc54)CC3)s2)cc1             61.9
2  COc1ccc(-c2nnc([C@H](C)[C@H]3CC[C@@H](c4ccnc5ccc(F)cc54)CC3)[nH]2)cc1              192
3  CCC(c1nnc(Nc2ccc(OC)cc2)[nH]1)C1CCC(c2ccnc3ccc(F)cc23)CC1 (single isomer, unassigned) [Example 55]             2000
4  CC(C)Oc1ccc(-c2nnc([C@H](C)[C@H]3CC[C@@H](c4ccnc5ccc(F)cc54)CC3)[nH]2)cc1             22.5

I = C[C@@H](c1nnc(-c2cccc(F)c2)[nH]1)[C@H]1CC[C@@H](c2ccnc3ccc(F)cc32)CC1
II = C[C@@H](c1ncc(-c2ccc(F)cc2)[nH]1)[C@H]1CC[C@@H](c2ccnc3ccc(F)cc32)CC1
[in] Dear colleague, could you let me know whether I or II has the lower recorded IC50? Thanks. # answer = label of selected item
[out] II
(II: 18.3 nM, I: 36.2 nM)

I = C[C@@H](c1nnc(-c2ccccc2)o1)[C@H]1CC[C@@H](c2ccnc3ccc(F)cc32)CC1
II = C[C@@H](c1nnc(Nc2ccccc2)[nH]1)[C@H]1CC[C@@H](c2ccnc3ccc(F)cc32)CC1
[in] Dear colleague, could you let me know whether I or II has the lower recorded IC50? Thanks. # answer = label of selected item
[out] II
